Each record here notes measured protein stability index.
B1: ALDH8A1 (parent)
chain: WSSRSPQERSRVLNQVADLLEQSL

# Variants of: B1
# assay_details: protein stability index of a GFP-peptide fusion (GPS, HEK-293T) (PSI 1-6); higher = more stable;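 note: lentivirally expressed fusions sorted by FACS into six bins by GFP to DsRed ratio, PSI derived from sequencing read proportions per bin multiplied by bin number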
# condition_label: c terminus: a fixed tail appended
Reply with the value as a number alone.

{"variant_annotation": "S23C", "protein stability index": 1.96}
{"variant_annotation": "D18C", "protein stability index": 2.03}
{"variant_annotation": "N14I", "protein stability index": 2.02}

[in] Return value of protein stability index for input V16I , no commentary.
[out] 2

[in] Return value of protein stability index for input L13I , no commentary.
[out] 3.06

[in] Return value of protein stability index for input Q22I , no commentary.
[out] 2.01

[in] Return value of protein stability index for input P6E , no commentary.
[out] 3.07
